Target: recombinant eIF4E (Homo sapiens (Human))
Sequence (P06730 whole entry): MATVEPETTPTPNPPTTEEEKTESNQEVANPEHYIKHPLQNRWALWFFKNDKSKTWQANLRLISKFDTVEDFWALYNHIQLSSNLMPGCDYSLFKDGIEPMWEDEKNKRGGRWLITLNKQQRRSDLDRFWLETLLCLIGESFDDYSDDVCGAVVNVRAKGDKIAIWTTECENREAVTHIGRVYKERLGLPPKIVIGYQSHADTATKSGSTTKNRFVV
Assay: Fluorescence polarization competition assay for eIF4E binding potency
Details: inhibition of eIF4E/EDA-m7GDP-ATTO-550 binding; calculated IC50 values, Table 4B; read-out: IC50
property_label: IC50 (nM)

Cc1sc2c(-c3cc(Cl)ccc3OCCn3c(C)nc4cnc(N5CCN(C)CC5)c(C#N)c4c3=O)ccnc2c1C(=O)O: 38.2
CCc1cc(-c2cc(Cl)ccc2OCCn2c(C)nc3cnc(N4CCNC5CC54)c(C#N)c3c2=O)c2scc(C(=O)O)c2n1 (stereo not drawn): 13.1
Cc1nc2cc(C(F)(F)F)c(N3CCN(C)CC3)c(C#N)c2c(=O)n1CCOc1ccc(Cl)cc1-c1ccnc2cc(C#N)sc12: 15.6
Cc1nc2cc(C(F)(F)F)c(N3CCN(C)CC3)cc2c(=O)n1CCOc1ccc(Cl)cc1-c1ccnc2c(C(=O)O)csc12: 10.3
Cc1nc2cnc(N(C)C3CCN([C@H]4C[C@H](OC(F)F)C4)CC3)c(C#N)c2c(=O)n1CC#Cc1ccc(Cl)cc1-c1ccnc2c(C(=O)NS(=O)(=O)c3ccccn3)csc12: 23.3
COc1ccc(S(=O)(=O)NC(=O)c2csc3c(-c4cc(Cl)ccc4C#CCn4c(C)nc5cnc(N(C)C6CCN(CC(C)(F)F)CC6)c(C#N)c5c4=O)ccnc23)cn1: 8.27
